# target: T1, soluble human ILT4-ECD (human, UniProt Q8N423 22-460)
# T1 construct: also called LILRB2 extracellular domain
# T1 sequence (Q8N423 other isoform, or with tags, fused parts or gaps): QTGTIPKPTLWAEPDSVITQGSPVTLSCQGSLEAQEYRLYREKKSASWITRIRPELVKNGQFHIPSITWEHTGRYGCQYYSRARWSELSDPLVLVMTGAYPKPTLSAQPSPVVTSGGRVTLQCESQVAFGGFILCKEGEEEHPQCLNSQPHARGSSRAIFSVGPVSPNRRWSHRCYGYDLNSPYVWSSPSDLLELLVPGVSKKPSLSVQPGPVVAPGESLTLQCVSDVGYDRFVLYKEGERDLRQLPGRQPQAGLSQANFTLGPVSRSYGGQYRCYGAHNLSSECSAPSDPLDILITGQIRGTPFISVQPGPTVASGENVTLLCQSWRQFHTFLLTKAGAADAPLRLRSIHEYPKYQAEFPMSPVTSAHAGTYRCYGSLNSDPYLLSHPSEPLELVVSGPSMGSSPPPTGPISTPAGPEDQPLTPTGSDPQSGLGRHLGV
# experiment: SPR (Biacore) as described in Example 3
endpoint.name: pKd
Answers are plain numbers, as −log10 of the molar value.

A selection of reference data follows.
binder | endpoint.name | assay.result
humanized anti-ILT2/ILT4 antibody Hz73D1.v1 (antibody, human IgG1, kappa, N297G, V domains shown, Human IgG1 constant region with G at position 297, human kappa; also called Hz73D1.vi) VH: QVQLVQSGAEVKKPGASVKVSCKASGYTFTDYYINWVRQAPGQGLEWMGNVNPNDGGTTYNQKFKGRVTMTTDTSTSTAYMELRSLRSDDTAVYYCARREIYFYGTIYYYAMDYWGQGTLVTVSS VL: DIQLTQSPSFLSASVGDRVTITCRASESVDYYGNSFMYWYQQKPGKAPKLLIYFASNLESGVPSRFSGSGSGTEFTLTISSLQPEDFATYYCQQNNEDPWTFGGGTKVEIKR | pKd | 9.12
anti-ILT2/ILT4 antibody 73D1 (antibody, V domains shown, Mouse hybridoma antibody; Shares its light chain variable region with 73C4) VH: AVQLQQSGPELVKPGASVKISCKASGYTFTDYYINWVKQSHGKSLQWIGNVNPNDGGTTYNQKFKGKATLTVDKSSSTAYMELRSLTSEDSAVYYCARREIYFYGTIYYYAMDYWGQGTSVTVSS VL: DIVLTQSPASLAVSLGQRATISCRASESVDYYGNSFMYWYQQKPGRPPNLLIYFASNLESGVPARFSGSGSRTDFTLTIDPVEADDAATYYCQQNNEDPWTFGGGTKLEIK | pKd | 9.13

Please look at the following binder next.
Exam item: Identify measured pKd associated with anti-ILT2/ILT4 antibody 47H6 (antibody, V domains shown, Mouse hybridoma antibody) VH: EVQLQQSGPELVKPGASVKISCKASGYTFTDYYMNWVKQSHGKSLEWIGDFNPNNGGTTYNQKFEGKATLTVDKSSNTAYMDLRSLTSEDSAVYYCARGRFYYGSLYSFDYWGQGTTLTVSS VL: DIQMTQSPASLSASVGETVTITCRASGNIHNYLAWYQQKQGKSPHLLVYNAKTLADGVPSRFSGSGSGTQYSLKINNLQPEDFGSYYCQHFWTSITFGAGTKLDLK
Marked response: 9.70

Entry source: patent US20240025997A1
